Listed here: items and their measured remaining activity at 100 µM.
# Experimental Target: mGAT2 (Mus musculus)
# Construct: expressed in transfected cells; host or cells: HEK293
# Sequence (P31651 1-614): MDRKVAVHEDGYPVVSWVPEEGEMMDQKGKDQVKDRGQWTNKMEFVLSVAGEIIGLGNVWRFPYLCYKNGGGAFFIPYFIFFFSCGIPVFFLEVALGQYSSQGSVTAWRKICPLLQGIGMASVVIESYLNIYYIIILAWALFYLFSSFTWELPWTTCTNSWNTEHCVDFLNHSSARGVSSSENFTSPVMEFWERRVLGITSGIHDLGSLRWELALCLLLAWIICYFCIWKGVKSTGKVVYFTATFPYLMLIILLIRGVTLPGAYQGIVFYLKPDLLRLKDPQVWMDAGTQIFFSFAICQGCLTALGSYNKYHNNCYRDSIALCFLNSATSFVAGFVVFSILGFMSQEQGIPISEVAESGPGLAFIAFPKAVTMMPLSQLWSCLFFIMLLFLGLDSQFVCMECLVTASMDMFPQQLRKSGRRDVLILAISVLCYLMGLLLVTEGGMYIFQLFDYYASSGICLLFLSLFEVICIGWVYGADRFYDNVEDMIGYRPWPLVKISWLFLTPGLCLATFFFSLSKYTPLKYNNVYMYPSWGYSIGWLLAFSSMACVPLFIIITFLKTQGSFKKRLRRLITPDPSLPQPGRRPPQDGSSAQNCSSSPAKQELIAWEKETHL
# Experiment: [^3H]GABA uptake assay, HEK293 cells expressing mGAT2
# Type: cell-based
# Reported Conditions: HEK293; in presence of 100 μM compound

Some solved entries appear below for comparison.
- Molecule: "CCOC(=O)C1CCCN(CCOC(c2ccc(COC)cc2)(c2ccc(COC)cc2)c2ccc(COC)cc2)C1 (racemic) [12 i]"
  Experimental Target: "mGAT2 (Mus musculus)"
  remaining activity at 100 µM: "65%"
- Molecule: "COc1ccc(C(OCCN2CCCC(C(=O)O)C2)(c2ccc(OC)cc2)c2ccc(C(N)=O)cc2)cc1 (racemic) [5 j]"
  Experimental Target: "mGAT2 (Mus musculus)"
  remaining activity at 100 µM: "96.1%"
- Molecule: "CCOC(=O)C1CCCN(CCOC(c2ccc(OC)cc2)(c2ccc(OC)cc2)c2ccc(C(N)=O)cc2)C1 (racemic) [12 j]"
  Experimental Target: "mGAT2 (Mus musculus)"
  remaining activity at 100 µM: "56.1%"

Entry COc1ccc(C(O)(CCCN2CCCC(C(=O)O)C2)c2ccc(OC)cc2)cc1 (racemic) [5 l] : remaining activity at 100 µM on mGAT2 (Mus musculus) = 62.5%
